All values here come from ChEMBL document CHEMBL1128778.

Biological target: Squalene synthase (Rattus norvegicus, UniProt Q02769)
Sequence (Q02769 whole entry): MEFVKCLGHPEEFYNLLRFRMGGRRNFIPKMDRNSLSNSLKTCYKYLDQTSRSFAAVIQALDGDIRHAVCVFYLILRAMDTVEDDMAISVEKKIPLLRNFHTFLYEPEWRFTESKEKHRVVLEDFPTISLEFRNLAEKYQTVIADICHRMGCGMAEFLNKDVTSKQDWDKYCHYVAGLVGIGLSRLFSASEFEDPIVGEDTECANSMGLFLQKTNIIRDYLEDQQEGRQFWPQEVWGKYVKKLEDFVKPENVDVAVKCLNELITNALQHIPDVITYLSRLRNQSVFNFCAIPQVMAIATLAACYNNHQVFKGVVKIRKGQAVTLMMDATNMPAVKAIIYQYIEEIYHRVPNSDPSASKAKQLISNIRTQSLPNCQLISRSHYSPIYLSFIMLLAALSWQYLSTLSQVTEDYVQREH
Assay: Inhibitory activity against squalene synthase in rat liver; not active
Assay Endpoint: Ki

INSERT INTO measurements (molecule, experimental_target, endpoint_result) VALUES
  ('C=C(CCC12OC(C(=O)OCCC(C)C)C(O)(C(=O)OCOC(=O)C(C)(C)C)C(C(=O)O)(O1)[C@H](OC(=O)/C=C/[C@@H](C)C[C@@H](C)CC)[C@H]2O)[C@@H](OC(C)=O)[C@H](C)Cc1ccccc1 (stereo partly drawn)', 'Squalene synthase (Rattus norvegicus, UniProt Q02769)', 'Not Active'),
  ('C=C(CCC12OC(C(=O)OCCCC)C(O)(C(=O)OCOC(=O)C(C)(C)C)C(C(=O)O)(O1)[C@H](OC(=O)/C=C/[C@@H](C)C[C@@H](C)CC)[C@H]2O)[C@@H](OC(C)=O)[C@H](C)Cc1ccccc1 (stereo partly drawn)', 'Squalene synthase (Rattus norvegicus, UniProt Q02769)', 'Not Active'),
  ('C=C(CCC12OC(C(=O)OCCOC)C(O)(C(=O)OCOC(=O)C(C)(C)C)C(C(=O)O)(O1)[C@H](OC(=O)/C=C/[C@@H](C)C[C@@H](C)CC)[C@H]2O)[C@@H](OC(C)=O)[C@H](C)Cc1ccccc1 (stereo partly drawn)', 'Squalene synthase (Rattus norvegicus, UniProt Q02769)', 'Not Active'),
  ('C=C(CCC12OC(C(=O)OC)C(O)(C(=O)OCOC(=O)C(C)(C)C)C(C(=O)O)(O1)[C@H](OC(=O)/C=C/[C@@H](C)C[C@@H](C)CC)[C@H]2O)[C@@H](OC(C)=O)[C@H](C)Cc1ccccc1 (stereo partly drawn)', 'Squalene synthase (Rattus norvegicus, UniProt Q02769)', 'Not Active'),
  ('C=C(CCC12OC(C(=O)OCC)C(O)(C(=O)OCOC(=O)C(C)(C)C)C(C(=O)O)(O1)[C@H](OC(=O)/C=C/[C@@H](C)C[C@@H](C)CC)[C@H]2O)[C@@H](OC(C)=O)[C@H](C)Cc1ccccc1 (stereo partly drawn)', 'Squalene synthase (Rattus norvegicus, UniProt Q02769)', 'Not Active'),
  ('C=C(CCC12OC(C(=O)OCC(=O)OC)C(O)(C(=O)OCOC(=O)C(C)(C)C)C(C(=O)O)(O1)[C@H](OC(=O)/C=C/[C@@H](C)C[C@@H](C)CC)[C@H]2O)[C@@H](OC(C)=O)[C@H](C)Cc1ccccc1 (stereo partly drawn)', 'Squalene synthase (Rattus norvegicus, UniProt Q02769)', 'Not Active');

Challenge: Which Ki value is on record for C=C(CCC12OC(C(=O)NCCOC)C(O)(C(=O)OCOC(=O)C(C)(C)C)C(C(=O)O)(O1)[C@H](OC(=O)/C=C/[C@@H](C)C[C@@H](C)CC)[C@H]2O)[C@@H](OC(C)=O)[C@H](C)Cc1ccccc1 (stereo partly drawn) ?
Response given: Not Active

Challenge: Which Ki value is on record for C=CCOC(=O)C1OC2(CCC(=C)[C@@H](OC(C)=O)[C@H](C)Cc3ccccc3)OC(C(=O)O)([C@H](OC(=O)/C=C/[C@@H](C)C[C@@H](C)CC)[C@H]2O)C1(O)C(=O)OCOC(=O)C(C)(C)C (stereo partly drawn) ?
Response given: Not Active

----------
Species on record: Mus musculus
Assay: Compound was evaluated for its effective dose in the oral mouse cholesterol biosynthesis assay.
Assay type: functional
Conditions: Mus musculus, po; read-out: ED50
Assay Endpoint: log10(ED50) (log10 of the value in mg/kg)
In our notation, the value equals log10 of ED50 in mg/kg.

Some compounds with known log10(ED50) results, for comparison:
INSERT INTO results (compound, endpoint_result) VALUES
  ('C=C(CCC12OC(C(=O)OCCC)C(O)(C(=O)OCOC(=O)C(C)(C)C)C(C(=O)O)(O1)[C@H](OC(=O)/C=C/[C@@H](C)C[C@@H](C)CC)[C@H]2O)[C@@H](OC(C)=O)[C@H](C)Cc1ccccc1 (stereo partly drawn)', 0.30),
  ('C=C(CCC12OC(C(=O)OCCC(C)C)C(O)(C(=O)OCOC(C)=O)C(C(=O)O)(O1)[C@H](OC(=O)/C=C/[C@@H](C)C[C@@H](C)CC)[C@H]2O)[C@@H](OC(C)=O)[C@H](C)Cc1ccccc1 (stereo partly drawn)', 0.78),
  ('C=C(CCC12OC(C(=O)OC)C(O)(C(=O)OCOC(=O)C(C)(C)C)C(C(=O)O)(O1)[C@H](OC(=O)/C=C/[C@@H](C)C[C@@H](C)CC)[C@H]2O)[C@@H](OC(C)=O)[C@H](C)Cc1ccccc1 (stereo partly drawn)', 0.52),
  ('C=C(CCC12OC(C(=O)O)C(O)(C(=O)O)C(C(=O)O)(O1)[C@H](OC(=O)/C=C/[C@@H](C)C[C@@H](C)CC)[C@H]2O)[C@@H](OC(C)=O)[C@H](C)Cc1ccccc1 (stereo partly drawn)', 2.00),
  ('C=C(CCC12OC(C(=O)OCC)C(O)(C(=O)OCOC(=O)C(C)(C)C)C(C(=O)O)(O1)[C@H](OC(=O)/C=C/[C@@H](C)C[C@@H](C)CC)[C@H]2O)[C@@H](OC(C)=O)[C@H](C)Cc1ccccc1 (stereo partly drawn)', 0.41),
  ('C=C(CCC12OC(C(=O)OCCC(C)C)C(O)(C(=O)OCOC(=O)C(C)(C)C)C(C(=O)O)(O1)[C@H](OC(=O)/C=C/[C@@H](C)C[C@@H](C)CC)[C@H]2O)[C@@H](OC(C)=O)[C@H](C)Cc1ccccc1 (stereo partly drawn)', 0.95),
  ('C=C(CCC12OC(C(=O)OC(C)C)C(O)(C(=O)OCOC(=O)C(C)(C)C)C(C(=O)O)(O1)[C@H](OC(=O)/C=C/[C@@H](C)C[C@@H](C)CC)[C@H]2O)[C@@H](OC(C)=O)[C@H](C)Cc1ccccc1 (stereo partly drawn)', 0.60);

Challenge: Which log10(ED50) value is on record for C=CCOC(=O)C1OC2(CCC(=C)[C@@H](OC(C)=O)[C@H](C)Cc3ccccc3)OC(C(=O)O)([C@H](OC(=O)/C=C/[C@@H](C)C[C@@H](C)CC)[C@H]2O)C1(O)C(=O)OCOC(=O)C(C)(C)C (stereo partly drawn) ?
Response given: 0.30

----------
Molecular target: Squalene synthase (Rattus norvegicus, UniProt Q02769)
Test: Inhibitory activity against squalene synthase in rat liver; not active
Assay Endpoint: Ki

INSERT INTO assay_data (compound, endpoint_result) VALUES
  ('C=C(CCC12OC(C(=O)OCCC)C(O)(C(=O)OCOC(=O)C(C)(C)C)C(C(=O)O)(O1)[C@H](OC(=O)/C=C/[C@@H](C)C[C@@H](C)CC)[C@H]2O)[C@@H](OC(C)=O)[C@H](C)Cc1ccccc1 (stereo partly drawn)', 'Not Active'),
  ('C=C(CCC12OC(C(=O)OCC(=O)OC(C)(C)C)C(O)(C(=O)OCOC(=O)C(C)(C)C)C(C(=O)O)(O1)[C@H](OC(=O)/C=C/[C@@H](C)C[C@@H](C)CC)[C@H]2O)[C@@H](OC(C)=O)[C@H](C)Cc1ccccc1 (stereo partly drawn)', 'Not Active'),
  ('C=C(CCC12OC(C(=O)OC(C)C)C(O)(C(=O)OCOC(=O)C(C)(C)C)C(C(=O)O)(O1)[C@H](OC(=O)/C=C/[C@@H](C)C[C@@H](C)CC)[C@H]2O)[C@@H](OC(C)=O)[C@H](C)Cc1ccccc1 (stereo partly drawn)', 'Not Active');
